assay: blockers of an Epstein-Barr virus protein-peptide interaction – biochemical, fluorescence polarization, dose response (AID 1419); conditions: cell-free protein-peptide binding, 2 h
Calls of active or inactive are those of the source. No rule for the calls is given here.
Lab note: assign the record to one of label 1 (active), label 0 (inactive)

Can you look up the reported call for "Cc1nc(Cl)c2c(n1)NC1=C(O2)C(=O)CCC1" for me? label 1

Could you please tell me the result logged for "O=[N+]([O-])c1ccc(-c2nc3ccc([N+](=O)[O-])cc3[nH]2)cc1" in this assay? label 0

Outcome logged for "C=C1c2cc(OC)ccc2NC(=O)N1CC" in this assay: label 1

// return assay outcome for "COC(=O)c1cc2c(-c3ccccc3)c(C)c3ccccn3c-2c1C(=O)OC" label 1

Test call, this compound: "O=C1CCNc2ccc(-c3ccccc3)cc21" label 1

Write down the call the test reported for this compound. Item: "Cc1ccc2cc3c(N)c4c(C)ccc(C)c4nc3nc2c1" label 1

Name the outcome recorded for "C=CCn1c(=O)[nH]c2nc3cc(N=CN(C)C)c(C)cc3nc2c1=O" in the assay. label 1

Tell me the recorded outcome of this test for "O=C(Cn1cc2c(n1)CCCC2)NCc1ccccn1" . label 1

Answer briefly: the call reported for "COc1ccc(-c2c(C#N)c(N)nc3sc(C(=O)c4ccc(C)cc4)c(N)c23)cc1" in this assay. label 1

Look up the recorded call for CCN1CCN(CC(=O)N2N=C(c3cccs3)CC2c2ccc(OC)c(OC)c2)C(=O)C1=O (stereo not drawn) in this test. label 0

Call for entry "Cc1cc(-c2nc3c4c5c(sc4[nH]c(=O)n3n2)CCC5)c(C)o1" : label 1

Tell me the assay call for "Nc1cc2nsnc2cc1Br" please. label 1

Which result was noted for this compound in the test: "Cc1cc2nc3c(=O)[nH]c(=O)[nH]c3nc2c([N+](=O)[O-])c1N" label 1

Please indicate how the test categorized "C/C(=N/OC(=O)c1c(-c2c(Cl)cccc2Cl)noc1C)c1cnccn1" . label 0

Please indicate how the test categorized "O=C1NC(=Nc2ccc(Cl)cc2)/C(=C/c2ccco2)S1" . label 1

Test call, this compound: Cc1ccc(S(=O)(=O)C(C#N)c2nc3ccccc3nc2N2CCCC2)cc1C (stereo not drawn) label 0

Lab log entry: "Nc1ccc2nc3c(=O)[nH]c(=S)[nH]c3nc2c1" — outcome as called in the assay? label 1

What outcome does the record of this test show for "Cc1cc(Br)c2nc3c(c(C(=O)O)c2c1)CCCCC3" ? label 0

How was CCOc1ccc2[nH]c(=O)c(CN(CC3COCCO3)C(=O)C3CC3)cc2c1 (stereo not drawn) classified in this test? label 0

Which outcome was entered for the compound "CCCN1C(=O)c2cccc3c(N4CCCCC4)ccc(c23)C1=O" in this test? label 0

Query: recorded result category for "O=C(Nc1ccncc1)Nc1ccc(F)cc1F" in this test label 0

Short answer needed: outcome of this test for "COc1ccccc1NC(=O)c1sc2nc(Cc3ccccc3)cc(C(F)(F)F)c2c1N" ? label 1

Outcome? "CN(C)c1cccc(C(=O)OCc2cc(=O)oc3cc(O)ccc23)c1" label 0

---

assay: blockers of an Epstein-Barr virus protein-peptide interaction – biochemical, fluorescence polarization, dose response (AID 1419); settings: cell-free protein-peptide binding, 2 h
Activity calls are given as the source filed them. How the calls were made is not given here.
measured-metric: IC50

Quote IC50 reported for "COc1ccc(N=Cc2cc(Cc3ccccc3Cl)cc([N+](=O)[O-])c2O)cc1OC" please. 13.8 µM

Please report IC50 for the following molecule: CCOC(=O)[C@@]1(C#N)C(c2ccc(Cl)c(Cl)c2)[C@H](C(N)=O)N2C=C(C(C)=O)C=C[C@H]21 (stereo not given in full) 1.41 µM

Please report the measured IC50 for "CCCCN1C(=O)/C(=C/C=C2\N(C)c3ccccc3C2(C)C)SC1=S" 2.01 µM

Fill in reported IC50 for this entry: "CCOC(=O)c1cc(-c2ccc(/C=C3/C(=O)NC(=O)C(C#N)=C3C)o2)ccc1Cl" < 0.42 µM

Name the recorded IC50 of the molecule listed here: "O=C(Nc1ccc2[nH]c3c(c2c1)CCCC3)c1ccco1" 27.9 µM

Look up and report measured IC50 for this entry: "CCOC(=O)/C(=C/c1ccc(N2CCC(c3ccccc3)=N2)cc1)C(C)=O" 3.78 µM

Tell me IC50 reported for CCOC(=O)C1CCCN(c2nc3ccccc3nc2C(C#N)C(=O)NCc2ccccc2)C1 (stereo not given) 8.82 µM

Specify IC50 for Nc1c(C(=O)NCC2CCCO2)sc2nc3c(c(-c4ccco4)c12)CC/C3=C\c1ccco1 (stereo not given) and stop. < 0.42 µM

Retrieve IC50 measured for "O=C(Nc1cccc([N+](=O)[O-])c1)c1cnccn1" and print it. > 54 µM (inactive)

Specify IC50 for "Cc1c(C(=O)NCCSCc2c(F)cccc2Cl)cnn1-c1ccc(Cl)cc1" and stop. > 54 µM (inactive)

Cited source: PubChem BioAssay AID1419
